Tested on: SK-MEL-28 melanoma
Assay: NCI-60 one-dose screen, 48 h (100 = growth as untreated, 0 = no growth, -100 = all killed)
Details: 10 µM unless noted
Compounds without any hit were thinned out: in the full panel of roughly 83,000, 20% have a hit. The source made the active and inactive calls. How the source made its calls: active means growth percent below 10; inactive means the rest.
endpoint.label: growth

[
  {
    "molecule": "Nc1ccc(-c2cc3c(Nc4ccc(Oc5cccc(C(F)(F)F)c5)c(Cl)c4)ncnc3s2)cc1",
    "tgt": "SK-MEL-28 melanoma",
    "growth": "83.1% (inactive)"
  },
  {
    "molecule": "CN(C)[C@@H]1C(=O)C(C(=O)NCc2nc3[nH]cnc(=S)c3[nH]2)=C(O)[C@@]2(O)C(=O)C3=C(O)c4c(O)cccc4[C@@](C)(O)[C@H]3C[C@@H]12",
    "tgt": "SK-MEL-28 melanoma",
    "growth": "118% (inactive)"
  },
  {
    "molecule": "COc1cc(-c2nn(-c3ccc(C)cc3)cc2C(=O)O)ccc1O",
    "tgt": "SK-MEL-28 melanoma",
    "growth": "104% (inactive)"
  },
  {
    "molecule": "Cc1cc(NS(=O)(=O)c2ccc(-c3cnc(C4CC4)o3)cc2)ccc1Cl",
    "tgt": "SK-MEL-28 melanoma",
    "growth": "50.5% (inactive)"
  },
  {
    "molecule": "Cc1ccc(NC(=O)C2CCC(CN3CCN(C)CC3)CC2)cc1Nc1nccc(-c2cccnc2)n1 (stereo not given)",
    "tgt": "SK-MEL-28 melanoma",
    "growth": "99.7% (inactive)"
  },
  {
    "molecule": "CC(C)C[C@@H](NC(=O)[C@@H](Cc1ccccc1)NC(=O)c1cnccn1)B1Oc2ccc(C[C@H](NC(=O)[C@H](Cc3ccc4c(c3)OB([C@@H](CC(C)C)NC(=O)[C@@H](Cc3ccccc3)NC(=O)c3cnccn3)O4)NC(=O)[C@@H](N)CC3CCC4OB([C@@H](CC(C)C)NC(=O)[C@@H](CC5CCCCC5)NC(=O)C5CNCCN5)OC4C3)C(=O)NCCCC[C@@H]3NC(=O)[C@@H](Cc4ccccc4)NC(=O)[C@H](CC(=O)O)NC(=O)CNC(=O)[C@H](CCCNC(=N)N)NC3=O)cc2O1 (stereo not given in full)",
    "tgt": "SK-MEL-28 melanoma",
    "growth": "-31.7% (active)"
  }
]

### Prompt Query: growth; subject: `Cc1cc2nc3[nH]c4ccccc4c3nc2cc1C`
### Response 90% (inactive)

### Prompt Value lookup for growth; key = `C#CCOc1ccc2ncnc(N3CCN(C(=O)CCl)CC3)c2c1`
### Response 98.4% [8.25 µM] (inactive)

### Prompt I have this molecule here, `N=C(N)c1ccc(-c2ccc(-c3ccc4ccccc4c3)s2)s1` , and I need its recorded growth.
### Response 92.8% (inactive)

### Prompt Entry `CN(C)S(=O)(=O)c1cccc(-c2nc3sc4c(c3c(=O)[nH]2)CCCC4)c1` : reported growth = ?
### Response 82.2% (inactive)

### Prompt Need growth, item `CCNC(=O)Oc1ccc(/C(=C(\C)c2ccc(Cl)cc2)c2ccc(OCCN(CC)CC)cc2)cc1`
### Response -62.3% (active)

### Prompt Query: growth; subject: `c1ccc(-c2cc3n4c(-c5ccccc5)nn(-c5ccccc5)c4cnc-3n2)cc1`
### Response 63.3% (inactive)

### Prompt Consider the molecule shown here: `COc1ccc(-n2nc(C)c3c(Nc4ccc(NC(=O)Nc5c(Cl)cccc5Cl)cc4)ncnc32)cc1` What is its recorded growth?
### Response 81.9% (inactive)

### Prompt Requested read-out: growth. Entry: `CCOC(=O)c1c(C(=O)OCC)c2cc(-c3ccn4c(C(=O)c5ccccc5)c(C(=O)OCC)c(C(=O)OCC)c4c3)ccn2c1C(=O)c1ccccc1`
### Response 113% (inactive)

### Prompt Give the measured growth of `C=CC(=O)Nc1cccc(-c2nc(SC)nc(Nc3cccc(OC)c3)c2C#N)c1` .
### Response 87% (inactive)
